Item-by-item account of hDAT/hSERT Affinity Ratio
Target system: hDAT (Homo sapiens, UniProt Q01959)
Sequence (Q01959 whole entry): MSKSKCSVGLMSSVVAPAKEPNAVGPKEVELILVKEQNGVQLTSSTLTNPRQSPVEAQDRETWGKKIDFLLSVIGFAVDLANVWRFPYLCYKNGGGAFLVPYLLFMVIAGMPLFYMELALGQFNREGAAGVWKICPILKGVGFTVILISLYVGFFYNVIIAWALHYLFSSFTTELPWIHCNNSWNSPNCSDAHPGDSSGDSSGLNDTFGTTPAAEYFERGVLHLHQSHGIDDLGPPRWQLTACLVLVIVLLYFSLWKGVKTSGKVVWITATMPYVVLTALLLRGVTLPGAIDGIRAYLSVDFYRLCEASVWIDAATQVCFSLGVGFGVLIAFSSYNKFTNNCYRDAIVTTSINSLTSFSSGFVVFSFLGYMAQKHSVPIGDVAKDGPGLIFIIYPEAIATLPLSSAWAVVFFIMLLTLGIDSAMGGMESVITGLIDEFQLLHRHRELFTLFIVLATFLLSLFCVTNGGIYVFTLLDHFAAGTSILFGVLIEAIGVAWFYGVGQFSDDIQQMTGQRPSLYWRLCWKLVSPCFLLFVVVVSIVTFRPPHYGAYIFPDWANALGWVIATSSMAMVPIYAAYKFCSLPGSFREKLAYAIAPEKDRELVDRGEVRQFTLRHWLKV
Assay remarks: Transporter binding assay, [3H]WIN35,428 displacement in HEK293 membranes
Design: expressed in transfected cells
Cond: ratio of binding affinities at hDAT and hSERT
Answer using only a numeral; do not append any unit.

Examples from the recorded data:
Lab book: hDAT/hSERT Affinity Ratio of CCCC(C(=O)c1cccc(Br)c1)N1CCCC1 (stereo not shown) noted as 470

Lab book: hDAT/hSERT Affinity Ratio of CCCC(C(=O)c1ccc(Cl)c(Cl)c1)N1CCCC1 (stereo not shown) noted as 462

Lab book: hDAT/hSERT Affinity Ratio of CCCC(C(=O)c1ccccc1)N1CCCC1 (stereo not shown) noted as 8514

Lab note: next compound to report on.
Lab book: hDAT/hSERT Affinity Ratio of CCCC(C(=O)c1ccc(Br)cc1)N1CCCC1 (stereo not shown) noted as 52

----------
Please consider the recorded Ki for hSERT (Homo sapiens, UniProt P31645) in what follows.
Give the value in µM but do not write µM after it.

Examples from the recorded data:
Lab book: Ki of CCCC(C(=O)c1ccc(F)cc1)N1CCCC1 (stereo not shown) noted as 57.9

Lab book: Ki of CCCC(C(=O)c1ccc(Cl)cc1)N1CCCC1 (stereo not shown) noted as 7.9

Lab note: next compound to report on.
Lab book: Ki of CCCC(C(=O)c1ccc(Cl)c(Cl)c1)N1CCCC1 (stereo not shown) noted as 4.99

----------
Target system: hDAT (Homo sapiens)
Assay remarks: Transporter binding assay, [3H]WIN35,428 displacement in HEK293 membranes
Parameters: expressed in transfected cells
Cond: ratio of binding affinities at hDAT and hSERT
Property measured: hDAT/hSERT Affinity Ratio
Answer using only a numeral; do not append any unit.

Lab book: hDAT/hSERT Affinity Ratio of CCCC(C(=O)c1ccc(Cl)cc1)N1CCCC1 (stereo not shown) noted as 478

Lab book: hDAT/hSERT Affinity Ratio of CCCC(C(=O)c1cccc(Cl)c1)N1CCCC1 (stereo not shown) noted as 1234

Lab book: hDAT/hSERT Affinity Ratio of CCCC(C(=O)c1cccc(F)c1)N1CCCC1 (stereo not shown) noted as 4540

Lab note: next compound to report on.
Lab book: hDAT/hSERT Affinity Ratio of CCCC(C(=O)c1ccc(F)cc1)N1CCCC1 (stereo not shown) noted as 1173

----------
Target system: hSERT (Homo sapiens, UniProt P31645)
Sequence (P31645 whole entry): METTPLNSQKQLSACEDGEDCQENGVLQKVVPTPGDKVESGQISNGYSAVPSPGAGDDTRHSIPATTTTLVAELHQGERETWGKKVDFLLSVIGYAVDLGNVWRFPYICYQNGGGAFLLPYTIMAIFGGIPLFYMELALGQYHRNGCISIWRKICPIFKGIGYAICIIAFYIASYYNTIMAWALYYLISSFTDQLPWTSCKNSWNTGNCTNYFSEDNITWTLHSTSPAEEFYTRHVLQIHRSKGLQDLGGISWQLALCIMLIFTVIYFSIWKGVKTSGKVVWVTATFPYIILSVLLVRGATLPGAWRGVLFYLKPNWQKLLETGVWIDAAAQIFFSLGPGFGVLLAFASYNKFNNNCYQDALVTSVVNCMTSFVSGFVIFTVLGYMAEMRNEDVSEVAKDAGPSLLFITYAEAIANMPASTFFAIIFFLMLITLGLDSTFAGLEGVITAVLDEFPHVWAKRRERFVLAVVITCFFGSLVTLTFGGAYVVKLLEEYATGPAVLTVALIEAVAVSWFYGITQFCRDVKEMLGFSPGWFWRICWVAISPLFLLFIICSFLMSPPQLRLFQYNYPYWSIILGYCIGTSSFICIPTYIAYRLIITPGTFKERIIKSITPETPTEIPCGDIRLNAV
Assay remarks: Uptake inhibition assay, [3H]5-HT uptake in transfected HEK293 cells
Threshold check on IC50: strictly below 20 µM is True; on or above 20 µM is False.

Take a look at these entries with their results.
Hi there! Is IC50 for CCCC(C(=O)c1ccc(Cl)c(Cl)c1)N1CCCC1 (centres unmarked) below 20 µM, do you know?
True

Hi there! Is IC50 for CCCC(C(=O)c1ccc(Cl)cc1)N1CCCC1 (centres unmarked) below 20 µM, do you know?
True

Hi there! Is IC50 for CCCC(C(=O)c1cccc(F)c1)N1CCCC1 (centres unmarked) below 20 µM, do you know?
False

New cases:
Hi there! Is IC50 for CCCC(C(=O)c1ccc(F)cc1)N1CCCC1 (centres unmarked) below 20 µM, do you know?
False

Hi there! Is IC50 for CCCC(C(=O)c1cccc(Br)c1)N1CCCC1 (centres unmarked) below 20 µM, do you know?
False

Hi there! Is IC50 for CCCC(C(=O)c1ccccc1)N1CCCC1 (centres unmarked) below 20 µM, do you know?
False

Hi there! Is IC50 for CCCC(C(=O)c1ccc(Br)cc1)N1CCCC1 (centres unmarked) below 20 µM, do you know?
False

Hi there! Is IC50 for CCCC(C(=O)c1cccc(Cl)c1)N1CCCC1 (centres unmarked) below 20 µM, do you know?
False

Origin of values: paper PMC8876800
